abundance fitness values for the variants below.
B1: Protein S100-G, residues 1 to 79; numbered along this chain, P02633 (parent)
chain: MSAKKSPEELKGIFEKYAAKEGDPNQLSKEELKLLLQTEFPSLLKGPSTLDELFEELDKNGDGEVSFEEFQVLVKKISQ

# Variants of: B1
# Experiment description: abundance fitness (aPCA) (normalised: wild type 0, dead -1); higher = more abundant; growth selection in yeast, the domain comes from the species named
# Applied conditions: Bos taurus

Residue change | abundance fitness
S42I | -0.035
D51R | -0.07
V72H | -0.029
S66M | 0.008
L53N | 0.109
K75P | -0.186
K76N | -0.196
V74W | 0.063
A3W | -0.178
F54P | -0.073
S48M | -0.056

All values here come from the Human Domainome abundance scans (Beltran et al. 2025).
